# Tested on: SR
# TEST_NAME: NCI tumour cell line growth inhibition, 48 h
Activity calls are given as the source filed them. Cut-off read from the data, not from the text of the source: active = GI50 up to about 1.1 µM and inactive = higher.
Classes to choose from: active, inactive

>  <COMPOUND>
NC(=O)C#CC(N)=O

>  <LABEL_CLASS>
inactive

$$$$

Enquiry: Each compound tested received a call. Report the one for COc1c(CC=C(C)C)c(O)c(C(CC(C)C)c2c(O)c3c(c(C(C)=O)c2O)OC(C(C)(C)O)C3)c(O)c1C(C)=O (stereo unspecified) .
Return: inactive

Enquiry: Each compound tested received a call. Report the one for `COc1ccc(NCc2cccc3c(=O)c4ccc(Cl)cc4oc23)cc1` .
Return: inactive

Enquiry: Each compound tested received a call. Report the one for `COC(=O)/C(C#N)=C(\N)C(Cl)(Cl)Cl` .
Return: active

Enquiry: Each compound tested received a call. Report the one for `Cn1c2ccccc2c(=NNc2ccc(C(=O)O)cc2)c2ccccc21` .
Return: inactive

----------
# Tested on: NCI/ADR-RES
# TEST_NAME: NCI tumour cell line growth inhibition, 48 h
The source made the active and inactive calls. Rule as the data show it: active = GI50 up to about 1.1 µM and inactive = higher.
Classes to choose from: active, inactive

>  <MOLECULE>
C[C@]12CC[C@H]3[C@@H](CC[C@]4(O)C[C@@H](O)CC[C@]34C=O)[C@@]1(O)CC[C@@H]2C1=CC(=O)OC1

>  <LABEL_CLASS>
active

$$$$
>  <MOLECULE>
Oc1cnc2c(O)cccc2c1

>  <LABEL_CLASS>
inactive

$$$$
>  <MOLECULE>
Cc1cn([C@@H]2C[C@@H]2CO)c(=O)[nH]c1=O

>  <LABEL_CLASS>
inactive

$$$$
>  <MOLECULE>
COC(=O)c1ccc(/C=N/c2ccc(S(N)(=O)=O)cc2)cc1

>  <LABEL_CLASS>
inactive

$$$$

Enquiry: Each molecule tested received a call. Report the one for `O=C(O)CP(=O)(O)O` .
Return: inactive

Enquiry: Each molecule tested received a call. Report the one for `O=C1/C(=C2/C(=O)N(c3ccccc3)c3ccccc32)Nc2ccccc21` .
Return: inactive

Enquiry: Each molecule tested received a call. Report the one for `N#CC(C#N)=c1c2ccccc2c(=C(C#N)C#N)c2ccccc12` .
Return: inactive

Enquiry: Each molecule tested received a call. Report the one for CC12CCC([C@H](Nc3cc(C(F)(F)F)cc(C(F)(F)F)c3)C1=O)C2(C)C (stereo partly specified) .
Return: inactive

Enquiry: Each molecule tested received a call. Report the one for CN1C2CCC1C(CO)C(=O)C2 (stereo unspecified) .
Return: inactive

----------
For each record, write down the corresponding GI50.
# System: SF-539
# TEST_NAME: NCI tumour cell line growth inhibition, 48 h
The source made the active and inactive calls. Rule as the data show it: active = GI50 up to about 1.1 µM and inactive = higher.

Worked examples, 5 compounds total:
>  <COMPOUND>
CCOc1ccc(O)cc1[P+](c1ccccc1)(c1ccccc1)c1ccccc1

>  <GI50>
3.83 µM (inactive)

$$$$
>  <COMPOUND>
COc1ccc(OC)c(/C=C2\CCc3ccccc3C2=O)c1

>  <GI50>
2.6 µM (inactive)

$$$$
>  <COMPOUND>
CCOP(=O)(/C=C/n1ccc(N)nc1=O)OCC

>  <GI50>
> 100 µM (inactive)

$$$$
>  <COMPOUND>
CCCCNC1CCC2(SCCS2)c2[nH]c3ccccc3c21 (stereo not given)

>  <GI50>
13.7 µM (inactive)

$$$$
>  <COMPOUND>
N#Cc1c(C#N)c(-c2cccc([N+](=O)[O-])c2)n(-c2ccccc2)c1N

>  <GI50>
21.1 µM (inactive)

$$$$

Fill in GI50 for each of the 5 compounds listed.
1. CCN(CC)c1ccc2cc(-c3nnc(-c4ccccc4O)o3)c(=O)oc2c1
2. Cn1c2c(c3c(=O)[nH]ncc31)CCc1ccccc1-2
3. CCOc1ccc2nc(NC(=O)C(=O)C(C#N)CC(C)(C)C=O)sc2c1 (stereo not given)
4. COc1ccc(C2(c3ccc(OC)cc3)OC(=O)c3cccc4cccc2c34)cc1
5. CC(=O)NC1C(OCc2ccccc2)OC(CO)C(O)C1OCC(=O)NC(C)C(=O)NC(CCC(=O)NCCCCCC(=O)Nc1ccc2c(c1)CN1C(=O)c3ccccc3C1=N2)C(N)=O (stereo not given)

Return:
1: 8.18 µM (inactive); 2: 46.5 µM (inactive); 3: 75.7 µM (inactive); 4: 3.48 µM (inactive); 5: > 100 µM (inactive)
